Numbers sourced from patent US20130251728A1.

Each entry below carries its reported T½.
- TEST SYSTEM: T1, mfGCGR-hFc (cynomolgus monkey (Macaca fascicularis))
- T1 construct: also called mfGCGR-N-terminal hFc
- T1 sequence (chain, as listed by the source limits assumed): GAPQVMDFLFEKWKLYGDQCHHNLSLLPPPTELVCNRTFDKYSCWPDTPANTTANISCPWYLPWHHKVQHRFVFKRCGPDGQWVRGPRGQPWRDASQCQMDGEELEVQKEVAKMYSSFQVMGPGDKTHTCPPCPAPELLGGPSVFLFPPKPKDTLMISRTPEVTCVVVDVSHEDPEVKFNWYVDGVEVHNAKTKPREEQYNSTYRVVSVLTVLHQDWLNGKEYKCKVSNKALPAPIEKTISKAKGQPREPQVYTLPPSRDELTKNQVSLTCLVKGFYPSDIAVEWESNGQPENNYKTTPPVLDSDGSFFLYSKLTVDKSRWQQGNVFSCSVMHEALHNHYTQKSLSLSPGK
- ASSAY OVERVIEW: SPR Biacore T100, 37C, mAb captured, antigen flowed
Report the figure in min without appending any unit label.

The following binders have reported results that may help.
H4H1328P (antibody, V domains shown, Fully human anti-GCGR antibody; the controls are called isotype-matched hIgG4) VH: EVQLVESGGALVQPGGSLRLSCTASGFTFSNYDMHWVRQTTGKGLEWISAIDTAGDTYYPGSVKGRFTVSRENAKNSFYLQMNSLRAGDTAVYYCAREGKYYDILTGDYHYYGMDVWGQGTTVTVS VL: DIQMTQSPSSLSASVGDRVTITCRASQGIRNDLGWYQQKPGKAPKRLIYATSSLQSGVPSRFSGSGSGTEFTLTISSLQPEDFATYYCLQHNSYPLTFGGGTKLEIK | 161
H4H1339P (antibody, V domains shown, Fully human anti-GCGR antibody; the controls are called isotype-matched hIgG4) VH: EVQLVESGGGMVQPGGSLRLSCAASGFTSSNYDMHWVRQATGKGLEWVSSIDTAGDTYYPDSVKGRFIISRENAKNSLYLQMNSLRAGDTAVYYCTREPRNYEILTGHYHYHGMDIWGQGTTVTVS VL: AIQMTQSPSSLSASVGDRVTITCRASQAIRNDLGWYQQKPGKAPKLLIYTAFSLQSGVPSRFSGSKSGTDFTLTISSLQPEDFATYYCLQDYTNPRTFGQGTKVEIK | 108
H4H1765N (antibody, V domains shown, Anti-GCGR antibody from hybridoma; the controls are called isotype-matched hIgG4) VH: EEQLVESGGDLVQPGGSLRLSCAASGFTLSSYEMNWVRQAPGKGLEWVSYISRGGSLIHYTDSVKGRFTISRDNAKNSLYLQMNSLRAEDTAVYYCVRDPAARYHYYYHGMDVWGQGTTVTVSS VL: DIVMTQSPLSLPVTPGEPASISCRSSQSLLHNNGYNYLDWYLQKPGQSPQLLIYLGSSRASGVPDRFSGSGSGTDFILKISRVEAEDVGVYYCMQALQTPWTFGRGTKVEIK | 778
H4H1331P (antibody, V domains shown, Fully human anti-GCGR antibody; the controls are called isotype-matched hIgG4) VH: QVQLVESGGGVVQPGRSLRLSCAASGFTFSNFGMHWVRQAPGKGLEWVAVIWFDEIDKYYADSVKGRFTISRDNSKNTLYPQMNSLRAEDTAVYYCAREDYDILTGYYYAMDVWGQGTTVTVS VL: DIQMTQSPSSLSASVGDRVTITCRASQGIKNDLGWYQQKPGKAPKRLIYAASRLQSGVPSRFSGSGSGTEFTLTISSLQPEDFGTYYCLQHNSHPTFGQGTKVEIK | 281
H4H1327P (antibody, V domains shown, also called anti-GCGR (hIgG4) antibody designated H4H1327P) VH: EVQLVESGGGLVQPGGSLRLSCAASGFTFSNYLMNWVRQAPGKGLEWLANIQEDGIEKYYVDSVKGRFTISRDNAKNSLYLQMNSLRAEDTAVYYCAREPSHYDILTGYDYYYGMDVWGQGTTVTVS VL: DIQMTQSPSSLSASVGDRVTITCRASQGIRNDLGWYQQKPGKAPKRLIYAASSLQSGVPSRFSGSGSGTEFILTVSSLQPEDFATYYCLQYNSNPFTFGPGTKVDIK | 145

Field: next binder
The recorded T½ for H4H1321P (antibody, V domains shown, Fully human anti-GCGR antibody; the controls are called isotype-matched hIgG4) VH: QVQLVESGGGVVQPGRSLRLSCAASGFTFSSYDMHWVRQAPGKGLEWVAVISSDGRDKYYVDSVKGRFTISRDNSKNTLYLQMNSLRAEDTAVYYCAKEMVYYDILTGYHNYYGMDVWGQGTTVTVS VL: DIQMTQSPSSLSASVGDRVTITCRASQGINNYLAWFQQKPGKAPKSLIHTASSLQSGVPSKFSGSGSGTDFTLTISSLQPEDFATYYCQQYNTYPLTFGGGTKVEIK is 152
